Molecular target: wild-type E. coli MenE (Escherichia coli, UniProt P37353)
reported metric: Kd (nM)
Answers are plain numbers, in nM.

(Q) Item Nc1ncnc2c1ncn2[C@@H]1O[C@H](COS(=O)(=O)NC(=O)CCC2(O)c3ccccc3C(O)C2(F)F)[C@@H](O)[C@H]1O (mixture of isomers) with wild-type E. coli MenE (Escherichia coli, UniProt P37353) - Kd?
(A) 120

====

Target: E. coli MenE (ecMenE) (Escherichia coli)
Sequence (P37353 whole entry): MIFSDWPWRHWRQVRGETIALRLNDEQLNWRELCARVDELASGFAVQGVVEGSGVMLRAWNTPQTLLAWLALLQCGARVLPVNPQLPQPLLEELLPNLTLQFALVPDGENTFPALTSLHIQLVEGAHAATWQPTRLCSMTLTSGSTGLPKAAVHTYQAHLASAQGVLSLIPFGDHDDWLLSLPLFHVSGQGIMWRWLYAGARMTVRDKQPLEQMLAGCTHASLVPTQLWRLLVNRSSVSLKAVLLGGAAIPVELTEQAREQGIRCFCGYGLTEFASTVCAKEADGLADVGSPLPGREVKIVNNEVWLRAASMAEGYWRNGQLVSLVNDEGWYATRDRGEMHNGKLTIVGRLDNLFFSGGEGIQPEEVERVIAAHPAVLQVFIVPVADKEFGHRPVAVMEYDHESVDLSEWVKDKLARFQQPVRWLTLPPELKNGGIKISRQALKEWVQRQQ
reported metric: IC50
// unit must come after the numeric part

(Q) Give its IC50 value. Item: Nc1ncnc2c1ncn2[C@@H]1O[C@H](COS(=O)(=O)NC(=O)CC[C@@]2(O)c3ccccc3[C@H](O)C2(F)F)[C@@H](O)[C@H]1O
(A) 5 µM

Taken from patent US20180273573A1.
